Overview of reported MIC across a group of compounds:
System: Klebsiella pneumoniae
Assay: Inhibition of OXA-232/OXA-9/TEM-1A/CTX-M-15/OXA-1 in Klebsiella pneumoniae CDC-0066 assessed as piperacillin antibacterial activity at 16 ug/ml after 16 to 20 hrs by CLSI-based microbroth dilution method (Rvb > […] ug/ml)

{"Record smiles": "N[C@H]1CC[C@H](CC(=O)N[C@H]2Cc3cccc(C(=O)O)c3OB2O)CC1", "MIC": "> 16 µg/mL"}
{"Record smiles": "NC(=O)[C@@H]1CC[C@@H]2CN1C(=O)N2OS(=O)(=O)O", "MIC": "8 µg/mL"}
{"Record smiles": "NCCN[C@H]1CC[C@H](CC(=O)N[C@H]2Cc3cccc(C(=O)O)c3OB2O)CC1", "MIC": "> 16 µg/mL"}
{"Record smiles": "CC(=O)N[C@H]1Cc2cccc(C(=O)O)c2OB1O", "MIC": "> 16 µg/mL"}
{"Record smiles": "NCc1ccc(CC(=O)N[C@H]2Cc3cccc(C(=O)O)c3OB2O)cc1", "MIC": "> 16 µg/mL"}
{"Record smiles": "O=C(O)C[C@@H]1CC[C@H](NC(=O)Cc2cccs2)B(O)O1", "MIC": "> 16 µg/mL"}

###

Test system: Escherichia coli
Assay: Inhibition of NDM in Escherichia coli CDC-0452 assessed as meropenem antibacterial activity at 4 ug/ml after 16 to 20 hrs by CLSI-based microbroth dilution method (reference value: […] ug/ml)

{"Record smiles": "N[C@H]1CC[C@H](CC(=O)N[C@H]2Cc3cccc(C(=O)O)c3OB2O)CC1", "Censoring qualifier": "=", "MIC (µg/mL)": 8}
{"Record smiles": "O=C(O)C[C@@H]1CC[C@H](NC(=O)Cc2cccs2)B(O)O1", "Censoring qualifier": ">", "MIC (µg/mL)": 16}
{"Record smiles": "C[C@]1(Cn2ccnn2)[C@H](C(=O)O)N2C(=O)C[C@H]2S1(=O)=O", "Censoring qualifier": ">", "MIC (µg/mL)": 16}
{"Record smiles": "NCc1ccc(CC(=O)N[C@H]2Cc3cccc(C(=O)O)c3OB2O)cc1", "Censoring qualifier": "=", "MIC (µg/mL)": 2}
{"Record smiles": "NCCN[C@H]1CC[C@H](CC(=O)N[C@H]2Cc3cccc(C(=O)O)c3OB2O)CC1", "Censoring qualifier": "=", "MIC (µg/mL)": 0.25}
{"Record smiles": "NC(=O)[C@@H]1CC[C@@H]2CN1C(=O)N2OS(=O)(=O)O", "Censoring qualifier": "=", "MIC (µg/mL)": 8}
{"Record smiles": "CC(=O)N[C@H]1Cc2cccc(C(=O)O)c2OB1O", "Censoring qualifier": "=", "MIC (µg/mL)": 8}

###

System: Klebsiella pneumoniae
Assay: Inhibition of KPC-2 in Klebsiella pneumoniae assessed as meropenem antibacterial activity at 4 ug/ml after 16 to 20 hrs by CLSI-based microbroth dilution method (Rvb >= […] ug/ml)

{"Record smiles": "NCc1ccc(CC(=O)N[C@H]2Cc3cccc(C(=O)O)c3OB2O)cc1", "MIC [µg/mL]": 0.5}
{"Record smiles": "N[C@H]1CC[C@@H](CC(=O)N[C@H]2Cc3cccc(C(=O)O)c3OB2O)CC1", "MIC [µg/mL]": 2}
{"Record smiles": "CNCCN[C@H]1CC[C@H](CC(=O)N[C@H]2Cc3cccc(C(=O)O)c3OB2O)CC1", "MIC [µg/mL]": 0.5}
{"Record smiles": "O=C(O)CN[C@H]1CC[C@H](CC(=O)N[C@H]2Cc3cccc(C(=O)O)c3OB2O)CC1", "MIC [µg/mL]": 4}
{"Record smiles": "O=C(C[C@H]1CC[C@H](NCCO)CC1)N[C@H]1Cc2cccc(C(=O)O)c2OB1O", "MIC [µg/mL]": 2}
{"Record smiles": "N[C@H]1CC[C@H](CC(=O)N[C@H]2Cc3cccc(C(=O)O)c3OB2O)CC1", "MIC [µg/mL]": 2}

###

Test: Inhibition of bacterial AmpC using nitrocefin as substrate preincubated for 15 mins followed by susbtrate addition and measured after 10 mins by spectrophotometric method
Parameters: species or system Bacteria
pIC50: −log10 of the molar value.
Overview of reported pIC50 across a group of compounds:

{"Record smiles": "O=C(O)C[C@@H]1CC[C@H](NC(=O)Cc2cccs2)B(O)O1", "pIC50": 7.05}
{"Record smiles": "NCCN[C@H]1CC[C@@H](CC(=O)N[C@H]2Cc3cccc(C(=O)O)c3OB2O)CC1", "pIC50": 7.46}
{"Record smiles": "N=C(N)NCCN[C@H]1CC[C@H](CC(=O)N[C@H]2Cc3cccc(C(=O)O)c3OB2O)CC1", "pIC50": 8.22}
{"Record smiles": "N[C@H]1CC[C@@H](CC(=O)N[C@H]2Cc3cccc(C(=O)O)c3OB2O)CC1", "pIC50": 8.30}
{"Record smiles": "NCCNc1ccc(CC(=O)N[C@H]2Cc3cccc(C(=O)O)c3OB2O)cc1", "pIC50": 8.30}

###

Overview of reported MIC across a group of molecules:
Target: Beta-lactamase VIM-2 (Pseudomonas aeruginosa)
Experiment: Inhibition of VIM-2 in Pseudomonas aeruginosa assessed as meropenem antibacterial activity at 4 ug/ml after 16 to 20 hrs by CLSI-based microbroth dilution method (Rvb >= […] ug/ml)

{"Record smiles": "O=C(C[C@H]1CC[C@H](NCCO)CC1)N[C@H]1Cc2cccc(C(=O)O)c2OB1O", "MIC": "4 mg/L"}
{"Record smiles": "N[C@H]1CC[C@H](CC(=O)N[C@H]2Cc3cccc(C(=O)O)c3OB2O)CC1", "MIC": "2 mg/L"}
{"Record smiles": "NCCN[C@H]1CC[C@@H](CC(=O)N[C@H]2Cc3cccc(C(=O)O)c3OB2O)CC1", "MIC": "0.5 mg/L"}
{"Record smiles": "N=C(N)NCCN[C@H]1CC[C@H](CC(=O)N[C@H]2Cc3cccc(C(=O)O)c3OB2O)CC1", "MIC": "0.5 mg/L"}
{"Record smiles": "NCCCN[C@H]1CC[C@H](CC(=O)N[C@H]2Cc3cccc(C(=O)O)c3OB2O)CC1", "MIC": "0.25 mg/L"}

###

Overview of reported log10 MIC across a group of compounds:
Target: Beta-lactamase VIM-2 (Pseudomonas aeruginosa) (UniProt Q9K2N0)
Test: Inhibition of VIM-2 in Pseudomonas aeruginosa assessed as meropenem antibacterial activity at 4 ug/ml after 16 to 20 hrs by CLSI-based microbroth dilution method (Rvb >= […] ug/ml)
Readout kind: log10 MIC (log10 of the value in µg/mL)

{"Record smiles": "NCCNc1ccc(CC(=O)N[C@H]2Cc3cccc(C(=O)O)c3OB2O)cc1", "Experimental system": "Beta-lactamase VIM-2 (Pseudomonas aeruginosa) (UniProt Q9K2N0)", "Readout kind": "log10 MIC", "Observed measurement": -0.30}
{"Record smiles": "NCCN[C@H]1CC[C@H](CC(=O)N[C@H]2Cc3cccc(C(=O)O)c3OB2O)CC1", "Experimental system": "Beta-lactamase VIM-2 (Pseudomonas aeruginosa) (UniProt Q9K2N0)", "Readout kind": "log10 MIC", "Observed measurement": -1.22}
{"Record smiles": "O=C(C[C@H]1CC[C@H](NCc2cnc[nH]2)CC1)N[C@H]1Cc2cccc(C(=O)O)c2OB1O", "Experimental system": "Beta-lactamase VIM-2 (Pseudomonas aeruginosa) (UniProt Q9K2N0)", "Readout kind": "log10 MIC", "Observed measurement": 0.00}
{"Record smiles": "NC[C@H]1CC[C@H](CC(=O)N[C@H]2Cc3cccc(C(=O)O)c3OB2O)CC1", "Experimental system": "Beta-lactamase VIM-2 (Pseudomonas aeruginosa) (UniProt Q9K2N0)", "Readout kind": "log10 MIC", "Observed measurement": 0.60}
{"Record smiles": "O=C(C[C@H]1CC[C@H](N2CCNCC2)CC1)N[C@H]1Cc2cccc(C(=O)O)c2OB1O", "Experimental system": "Beta-lactamase VIM-2 (Pseudomonas aeruginosa) (UniProt Q9K2N0)", "Readout kind": "log10 MIC", "Observed measurement": 1.20}
{"Record smiles": "O=C(O)CN[C@H]1CC[C@H](CC(=O)N[C@H]2Cc3cccc(C(=O)O)c3OB2O)CC1", "Experimental system": "Beta-lactamase VIM-2 (Pseudomonas aeruginosa) (UniProt Q9K2N0)", "Readout kind": "log10 MIC", "Observed measurement": 1.20}
{"Record smiles": "N[C@H]1CC[C@@H](CC(=O)N[C@H]2Cc3cccc(C(=O)O)c3OB2O)CC1", "Experimental system": "Beta-lactamase VIM-2 (Pseudomonas aeruginosa) (UniProt Q9K2N0)", "Readout kind": "log10 MIC", "Observed measurement": 1.51}
{"Record smiles": "NCC(=O)N[C@H]1CC[C@H](CC(=O)N[C@H]2Cc3cccc(C(=O)O)c3OB2O)CC1", "Experimental system": "Beta-lactamase VIM-2 (Pseudomonas aeruginosa) (UniProt Q9K2N0)", "Readout kind": "log10 MIC", "Observed measurement": 0.90}
{"Record smiles": "NCc1ccc(CC(=O)N[C@H]2Cc3cccc(C(=O)O)c3OB2O)cc1", "Experimental system": "Beta-lactamase VIM-2 (Pseudomonas aeruginosa) (UniProt Q9K2N0)", "Readout kind": "log10 MIC", "Observed measurement": 0.90}
{"Record smiles": "CS(=O)(=O)NCCN[C@H]1CC[C@H](CC(=O)N[C@H]2Cc3cccc(C(=O)O)c3OB2O)CC1", "Experimental system": "Beta-lactamase VIM-2 (Pseudomonas aeruginosa) (UniProt Q9K2N0)", "Readout kind": "log10 MIC", "Observed measurement": 1.20}

Source of measurements: ChEMBL document CHEMBL4354828
